biological target: p38α (Homo sapiens); test: In vitro inhibition of p38 kinase (LANCE Ultra TR-FRET); format: biochemical; conditions: read-out: Kinase in vitro IC50(nM) p38α
Sequence (Q16539 whole entry): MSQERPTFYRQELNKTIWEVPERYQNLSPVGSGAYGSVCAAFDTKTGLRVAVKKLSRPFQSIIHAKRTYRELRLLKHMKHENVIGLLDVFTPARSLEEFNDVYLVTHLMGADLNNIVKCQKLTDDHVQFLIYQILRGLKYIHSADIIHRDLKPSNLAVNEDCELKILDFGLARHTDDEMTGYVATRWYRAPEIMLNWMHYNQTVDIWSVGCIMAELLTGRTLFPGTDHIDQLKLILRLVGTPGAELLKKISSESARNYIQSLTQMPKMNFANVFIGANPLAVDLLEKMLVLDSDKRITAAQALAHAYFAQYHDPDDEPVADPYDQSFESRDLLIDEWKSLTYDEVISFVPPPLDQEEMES
measured.metric: IC50 (nM)

Consider the worked cases shown below.
                                   compound  measured_metric  endpoint_result
0  O=c1ncn2nc(Oc3ccc(F)cc3F)ccc2c1-c1c(F)cccc1Cl             IC50             12.1
1  O=c1ncn2nc(NC3CC(F)(F)C3)ccc2c1-c1c(Cl)cccc1Cl             IC50             1350

(I) O=c1ncn2nc(OC3C=CCCC3)ccc2c1-c1c(Cl)cccc1Cl (stereo not drawn)
(II) O=c1ncn2nc(Oc3cccc(F)c3F)ccc2c1-c1c(Cl)cccc1Cl
(III) O=c1ncn2nc(Oc3ccc(F)cc3)ccc2c1-c1c(Cl)cccc1Cl
(IV) O=c1ncn2nc(Oc3ccc(F)cc3Cl)ccc2c1-c1c(Cl)cccc1Cl
## Task Put these in order: smallest IC50 first, largest last. // respond by listing labels in the order requested
## Result IV, III, II, I

(a) O=c1ncn2nc(Oc3ccc(Cl)cc3Br)ccc2c1-c1c(Cl)cccc1Cl
(b) O=c1ncn2nc(OC3CCCC=C3Cl)ccc2c1-c1c(Cl)cccc1Cl (stereo not drawn)
## Task Between a and b , which one shows the smaller IC50 number? Use the label to indicate which entry you chose.
## Result a

(a) Cc1cc(F)ccc1Oc1ccc2c(-c3c(Cl)cccc3Cl)c(=O)ncn2n1
(b) O=c1ncn2nc(Oc3ccc(Cl)cc3F)ccc2c1-c1c(Cl)cccc1Cl
## Task Endpoint returns whichever of a and b has the numerically higher IC50. Use the label to indicate which entry you chose.
## Result a
(a: 38.8 nM, b: 13.6 nM)

* * *

target: UniProtKB Q15759; assay: In vitro inhibition of p38 kinase (LANCE Ultra TR-FRET); assay type: biochemical; conditions: read-out: Kinase in vitro IC50(nM) p38β
Sequence (Q15759 whole entry): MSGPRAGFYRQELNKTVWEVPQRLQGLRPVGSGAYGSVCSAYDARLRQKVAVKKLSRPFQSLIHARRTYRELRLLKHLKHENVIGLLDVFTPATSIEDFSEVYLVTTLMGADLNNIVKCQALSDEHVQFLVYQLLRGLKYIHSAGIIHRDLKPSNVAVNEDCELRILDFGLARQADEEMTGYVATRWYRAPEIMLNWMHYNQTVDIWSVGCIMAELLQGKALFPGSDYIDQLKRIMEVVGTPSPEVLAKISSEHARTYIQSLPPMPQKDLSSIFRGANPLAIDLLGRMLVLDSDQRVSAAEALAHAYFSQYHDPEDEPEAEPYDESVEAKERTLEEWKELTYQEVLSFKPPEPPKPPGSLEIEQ
measured.metric: IC50 (nM)

In [3]: df
Out[3]:
                              record_smiles  endpoint_result
0  O=c1ncn2nc(Oc3ccc(Cl)cc3F)ccc2c1-c1c(Cl)cccc1Cl              109
1  Cc1cc(Cl)ccc1Oc1ccc2c(-c3c(Cl)cccc3Cl)c(=O)ncn2n1              389
2  O=c1ncn2nc(Oc3ccccc3Br)ccc2c1-c1c(Cl)cccc1Cl              316

(P) O=c1ncn2nc(Oc3ccc(F)cc3)ccc2c1-c1c(Cl)cccc1Cl
(Q) COC(=O)c1ccc(OC)c(-c2c(=O)ncn3nc(Oc4ccc(F)cc4F)ccc23)c1
## Task Between P and Q , which one shows the smaller IC50 number? Use the label to indicate which entry you chose.
## Result Q

* * *

biological target: p38α (Homo sapiens); test: In vitro inhibition of p38 kinase (LANCE Ultra TR-FRET); assay type: biochemical
measured.metric: IC50

IC50 reported for this compound O=c1ncn2nc(OC3CC(F)(F)C3)ccc2c1-c1c(Cl)cccc1Cl : > 3.33 µM

* * *

system: BV-2 cells; test: Inhibition of inflammation in LPS-stimulated BV-2 cells (ELISA of inflammatory factors); format: cell-based; conditions: Mus musculus, 100 ng/mL LPS 4 hours, read-out: BV-2 Rf IC50
measured.metric: IC50 (nM)

Consider the worked cases shown below.
                              record_smiles  experimental_target  measured_metric  endpoint_result
0  O=c1ncn2nc(Oc3ccc(F)cc3F)ccc2c1-c1c(F)cccc1Cl           BV-2 cells             IC50             14.2
1  O=c1ncn2nc(Oc3ccc(F)cc3)ccc2c1-c1c(Cl)cccc1Cl           BV-2 cells             IC50             53.8

(a) O=c1ncn2nc(Oc3cccc(Br)c3)ccc2c1-c1c(Cl)cccc1Cl
(b) O=c1ncn2nc(Oc3ccccc3F)ccc2c1-c1c(Cl)cccc1Cl
(c) O=c1ncn2nc(Oc3c(F)ccc(F)c3Cl)ccc2c1-c1c(Cl)cccc1Cl
## Task Sort these compounds on IC50 so the largest reading comes first. // respond by listing labels in the order requested
## Result c, a, b
(c: 678 nM, a: 75.6 nM, b: 18.8 nM)
